# targetSystem: recombinant human pro-heparanase (H60) (Homo sapiens, UniProt Q9Y251)
# Construct: Heparanase maturation involves the removal of the signal peptide, transforming the 65 kDa pre-pro-heparanase into a 60 kDa pro-heparanase
# Sequence (Q9Y251 36-543): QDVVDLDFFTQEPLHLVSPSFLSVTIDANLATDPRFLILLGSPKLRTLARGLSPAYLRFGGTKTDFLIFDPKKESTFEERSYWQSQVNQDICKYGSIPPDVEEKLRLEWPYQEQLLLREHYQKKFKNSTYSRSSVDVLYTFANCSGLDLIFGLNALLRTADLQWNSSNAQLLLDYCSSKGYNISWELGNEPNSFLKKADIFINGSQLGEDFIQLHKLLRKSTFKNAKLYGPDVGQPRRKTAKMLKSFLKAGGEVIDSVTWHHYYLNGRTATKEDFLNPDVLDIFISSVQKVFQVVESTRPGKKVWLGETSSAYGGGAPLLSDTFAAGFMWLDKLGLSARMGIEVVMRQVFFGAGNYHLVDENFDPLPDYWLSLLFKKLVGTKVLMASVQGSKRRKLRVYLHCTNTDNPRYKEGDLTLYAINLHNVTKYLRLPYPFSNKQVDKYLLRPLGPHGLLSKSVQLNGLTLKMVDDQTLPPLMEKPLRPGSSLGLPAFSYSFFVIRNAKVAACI
# measurementNotes: Pro-heparanase (H60) activation in a cell-based assay
# assayContext: inhibition of pro-heparanase activation in CHO cells; NI = no inhibition
# Description: Pro-heparanase (H60) activation in a cell-based assay: Chinese hamster ovary (CHO) cells were grown in complete F12 medium supplemented with 10% fetal calf serum (FCS). […] The plates were incubated for 24 hours in a 37° C. humidified incubator with 5% CO2. […] The plates were further incubated for additional 4 hours. The pro-heparanase was allowed to internalize by the cells and further processed to generate the active 53 kDa heparanase. […]
quantityKind: IC50 (nM)

{"structureNotation": "CC(C)(CC(=O)N1CCC[C@H]1C(=O)O)CN1C(=O)c2cc3oc(-c4ccc(Cl)cc4)cc3n2C1=S", "targetSystem": "recombinant human pro-heparanase (H60) (Homo sapiens, UniProt Q9Y251)", "recordedMeasurement": 230}
{"structureNotation": "Cc1c(N2C(=O)c3cc4oc(-c5ccc(Cl)cc5)cc4n3C2=S)c(=O)n(-c2ccccc2)n1C", "targetSystem": "recombinant human pro-heparanase (H60) (Homo sapiens, UniProt Q9Y251)", "recordedMeasurement": 370}

[A] CC(C)(CC(=O)NCC(=O)O)CN1C(=O)c2cc3oc(-c4ccc(Cl)cc4)cc3n2C1=S
[B] COCCCN1C(=O)c2cc3oc(-c4ccc(Cl)cc4)cc3n2C1=S
[C] CCOC(=O)CC(C)(C)CN1C(=O)c2cc3oc(-c4ccc([N+](=O)[O-])cc4)cc3n2C1=S
[D] CC(C)(CC(=O)O)CN1C(=O)c2cc3oc(-c4ccc([N+](=O)[O-])cc4)cc3n2C1=S
[E] CCN(CC)C(=O)CC(C)(C)CN1C(=O)c2cc3oc(-c4ccc(Cl)cc4)cc3n2C1=S
// query Rank the items in ascending order with respect to IC50. Arrange the labels as the request states and list them.
// result A, D, E, C, B
(A: 460 nM, D: 780 nM, E: 1400 nM, C: 2600 nM, B: 6600 nM)

====

# targetSystem: β-FGF (Homo sapiens, UniProt P09038)
# Sequence (P09038 143-288): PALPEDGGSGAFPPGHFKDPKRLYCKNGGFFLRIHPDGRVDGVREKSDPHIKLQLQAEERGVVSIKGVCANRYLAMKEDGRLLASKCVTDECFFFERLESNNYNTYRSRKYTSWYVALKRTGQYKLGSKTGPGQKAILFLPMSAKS
# measurementNotes: ELISA for determination of binding of β-FGF to heparin
# assayContext: inhibition towards both growth factors
quantityKind: inhibition of β-FGF binding to heparin

{"molecule": "CC(C)(CC(=O)NCC(=O)OC(C)(C)C)CN1C(=O)c2cc3oc(-c4ccc(Cl)cc4)cc3n2C1=S [Compound 19]", "inhibition of β-FGF binding to heparin": "sub-micromolar"}
{"molecule": "CN(C)CCNC(=O)CC(C)(C)CN1C(=O)c2cc3oc(-c4ccc(Cl)cc4)cc3n2C1=S [Compound 14]", "inhibition of β-FGF binding to heparin": "sub-micromolar"}
{"molecule": "CCOC(=O)CC(C)(C)CN1C(=O)c2cc3oc(-c4ccc(Cl)cc4)cc3n2C1=S [Compound 10]", "inhibition of β-FGF binding to heparin": "sub-micromolar"}
{"molecule": "CC(C)(CC(=O)N1CCOCC1)CN1C(=O)c2cc3oc(-c4ccc(Cl)cc4)cc3n2C1=S [Compound 17]", "inhibition of β-FGF binding to heparin": "sub-micromolar"}
{"molecule": "CCN(CC)C(=O)CC1(CN2C(=O)c3cc4oc(-c5ccc(Cl)cc5)cc4n3C2=S)CCCCC1 [Compound 24]", "inhibition of β-FGF binding to heparin": "sub-micromolar"}
{"molecule": "CCN(CC)C(=O)CC(C)(C)CN1C(=O)c2cc3oc(-c4ccc(Cl)cc4)cc3n2C1=S [Compound 13]", "inhibition of β-FGF binding to heparin": "sub-micromolar"}
{"molecule": "CON(C)C(=O)CCCN1C(=O)c2cc3oc(-c4ccc([N+](=O)[O-])cc4)cc3n2C1=S [Compound 3]", "inhibition of β-FGF binding to heparin": "sub-micromolar"}
{"molecule": "CN(C)CCCNC(=O)CC(C)(C)CN1C(=O)c2cc3oc(-c4ccc(Cl)cc4)cc3n2C1=S [Compound 15]", "inhibition of β-FGF binding to heparin": "sub-micromolar"}

// query # return inhibition of β-FGF binding to heparin of CCN(CC)C(=O)CCCN1C(=O)c2cc3oc(-c4ccc(Cl)cc4)cc3n2C1=S [Compound 6] (system: β-FGF (Homo sapiens, UniProt P09038))
// result sub-micromolar

// query # return inhibition of β-FGF binding to heparin of CCOC(=O)CCCN1C(=O)c2cc3sc(-c4ccc([N+](=O)[O-])cc4)cc3n2C1=S [Compound 31] (system: β-FGF (Homo sapiens, UniProt P09038))
// result sub-micromolar

// query # return inhibition of β-FGF binding to heparin of CN1CCN(C(=O)CC(C)(C)CN2C(=O)c3cc4oc(-c5ccc(Cl)cc5)cc4n3C2=S)CC1 [Compound 16] (system: β-FGF (Homo sapiens, UniProt P09038))
// result sub-micromolar
